tested on: Leishmania donovani; assay: Antileishmanial activity against Leishmania donovani MHOM-ET-67/L82 axenic amastigotes; assay type: functional, organism-based
metric: IC50 (µM)

Please review the following examples before continuing.
Ask: Please report IC50 for the following compound: `Oc1ccc(Cc2nc3ccccc3c3cc[nH]c23)cc1`
Reply: 120

Ask: Please report IC50 for the following compound: `c1ccc2c(c1)nc(-c1c[nH]c3ccccc13)c1[nH]ccc12`
Reply: 63.9

P: O=C(c1c[nH]c2ccccc12)c1nc2ccccc2c2cc[nH]c12
Q: c1ccc(Cc2nc3ccccc3c3cc[nH]c23)cc1
Ask: Please choose the item with the lower IC50 value from this pair: P and Q Please identify the chosen entry by its label.
Reply: P
(P: 16.1 µM, Q: 58.8 µM)

###

system: Trypanosoma brucei rhodesiense; assay: Antiparasitic activity against Trypanosoma brucei rhodesiense STIB 900 trypomastigotes; assay type: functional, organism-based
pIC50: −log10 of the molar value.
metric: pIC50

Ask: Please report pIC50 for the following compound: Oc1ccc(Cc2nc3ccccc3c3cc[nH]c23)cc1 [MARINOQUINOLINE D]
Reply: 4.21

Ask: Please report pIC50 for the following compound: Cc1nc2ccccc2c2cc[nH]c12 [MARINOQUINOLINE A]
Reply: 4.26

Ask: Please report pIC50 for the following compound: Nc1nc(N)nc(Nc2ccc([As]3SCC(CO)S3)cc2)n1 (stereo unspecified) [MELARSOPROL]
Reply: 7.92

Ask: Please report pIC50 for the following compound: c1ccc(Cc2nc3ccccc3c3cc[nH]c23)cc1 [MARINOQUINOLINE C]
Reply: 4.37

Ask: Please report pIC50 for the following compound: O=C(c1c[nH]c2ccccc12)c1nc2ccccc2c2cc[nH]c12 [MARINOQUINOLINE F]
Reply: 4.41

Ask: Please report pIC50 for the following compound: c1ccc2c(c1)nc(-c1c[nH]c3ccccc13)c1[nH]ccc12 [MARINOQUINOLINE E]
Reply: 4.29

###

test system: Plasmodium falciparum; assay: Antimalarial activity against Plasmodium falciparum K1 intra-erythrocytic form; format: functional, organism-based
pIC50: −log10 of the molar value.
metric: pIC50

Please review the following examples before continuing.
Ask: Please report pIC50 for the following compound: `Cc1nc2ccccc2c2cc[nH]c12`
Reply: 5.01

Ask: Please report pIC50 for the following compound: `c1ccc2c(c1)nc(-c1c[nH]c3ccccc13)c1[nH]ccc12`
Reply: 5.12

Ask: Please report pIC50 for the following compound: `O=C(c1c[nH]c2ccccc12)c1nc2ccccc2c2cc[nH]c12`
Reply: 5.77

1: c1ccc(Cc2nc3ccccc3c3cc[nH]c23)cc1
2: Oc1ccc(Cc2nc3ccccc3c3cc[nH]c23)cc1
Ask: In the pair 1 and 2 , the larger recorded pIC50 belongs to which? Please identify the chosen entry by its label.
Reply: 1
(1: 5.26, 2: 4.82)

###

test system: HUVEC; experiment: Cytotoxicity against HUVEC after 5 days by MTT assay; assay type: cell-based; details: Homo sapiens, 120 h
metric: IC50 (µg/mL)
Your answer is read as µg/mL, so omit the unit and give the number.

Please review the following examples before continuing.
Ask: Please report IC50 for the following compound: `Cc1nc2ccccc2c2cc[nH]c12`
Reply: 1.5

Ask: Please report IC50 for the following compound: `c1ccc(Cc2nc3ccccc3c3cc[nH]c23)cc1`
Reply: 0.55

More entries:
Ask: Please report IC50 for the following compound: `O=C(c1c[nH]c2ccccc12)c1nc2ccccc2c2cc[nH]c12`
Reply: 2.8

Ask: Please report IC50 for the following compound: `Oc1ccc(Cc2nc3ccccc3c3cc[nH]c23)cc1`
Reply: 2.5

Ask: Please report IC50 for the following compound: `c1ccc2c(c1)nc(-c1c[nH]c3ccccc13)c1[nH]ccc12`
Reply: 5.8
